protocol_description: Human blood to plasma concentration ratio
Type: in vitro ADME
conditions_used: human blood to plasma concentration ratio (B:P), concentration range 100–1000 ng/ml, unpublished data reported by Eisai Inc.

{"columns": ["smiles_structure", "blood plasma ratio"],
 "data": [
  ["Cc1ncc(OC[C@@]2(c3cccc(F)c3)C[C@H]2C(=O)Nc2ccc(F)cn2)c(C)n1", "0.61 to 0.656"]
]}

---

protocol_description: Human blood to plasma concentration ratio
Type: in vitro ADME
conditions_used: B:P (blood-to-plasma partition ratio), mean, mean value from unpublished data reported by Eisai Inc.

{"columns": ["smiles_structure", "blood plasma ratio"],
 "data": [
  ["Cc1ncc(OC[C@@]2(c3cccc(F)c3)C[C@H]2C(=O)Nc2ccc(F)cn2)c(C)n1", 0.636]
]}

---

protocol_description: pKa by capillary electrophoresis method
Type: physicochemical

{"columns": ["smiles_structure", "pKa"],
 "data": [
  ["Cc1ncc(OC[C@@]2(c3cccc(F)c3)C[C@H]2C(=O)Nc2ccc(F)cn2)c(C)n1", "< 3.5"]
]}
